// pKi lookup, one value per entry
- assayed.target: human cannabinoid receptor 1 (hCB1R) (Homo sapiens)
- Sequence (P21554 whole entry): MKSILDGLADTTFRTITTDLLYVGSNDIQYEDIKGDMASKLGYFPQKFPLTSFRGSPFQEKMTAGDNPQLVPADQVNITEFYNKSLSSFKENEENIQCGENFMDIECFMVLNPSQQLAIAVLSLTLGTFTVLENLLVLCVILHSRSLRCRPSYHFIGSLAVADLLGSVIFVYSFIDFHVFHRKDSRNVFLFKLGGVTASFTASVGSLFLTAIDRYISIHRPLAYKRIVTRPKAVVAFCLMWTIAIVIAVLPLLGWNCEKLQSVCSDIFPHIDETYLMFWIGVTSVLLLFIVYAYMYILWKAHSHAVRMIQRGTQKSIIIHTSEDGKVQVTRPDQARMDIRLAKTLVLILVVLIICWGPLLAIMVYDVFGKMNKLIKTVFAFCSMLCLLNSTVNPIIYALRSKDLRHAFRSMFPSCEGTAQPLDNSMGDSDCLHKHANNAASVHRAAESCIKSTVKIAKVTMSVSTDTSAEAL
- experiment: Binding to human cannabinoid receptor 1 (hCB1R), [3H]-SR141716A displacement
- run.conditions: CHO-K1/cannabinoid CB1 protein, 0.5 nM [3H]-SR141716A, Cheng-Prusoff; read-out: hCB1R; binding Ki
pKi: −log10 of the molar value.
endpoint: pKi

>>> print(df.to_string())
                                   molecule  endpoint  reported_result
0  CC1(C)C(=O)N(c2ccc(Cl)c(C(F)(F)F)c2)C(=O)N1Cc1ccc(C(F)(F)F)nc1 [Example 8]       pKi             6.64
1  CC1(C)C(=O)N(c2ccc(C#N)c(C(F)(F)F)c2)C(=O)N1Cc1cccc(C(F)(F)F)c1 [Example 3]       pKi             6.90
2  CC1(C)C(=O)N(c2ccc(C#N)c(C(F)(F)F)c2)C(=O)N1Cc1ccc(OC(F)(F)F)cc1 [Example 2]       pKi             6.70
3  CC1(C)C(=O)N(c2ccc(F)c(C(F)(F)F)c2)C(=O)N1Cc1ccccc1Oc1ccccc1 [Example 44]       pKi             7.00
4  CC1(C)C(=O)N(c2ccc(F)c(C(F)(F)F)c2)C(=O)N1Cc1ccc(C(F)(F)F)nc1 [Example 7]       pKi             6.69
5  CC1(C)C(=O)N(c2ccc(Cl)c(C(F)(F)F)c2)C(=O)N1Cc1ccc(OCc2ccccc2)c(OCc2ccccc2)c1 [Example 37]       pKi             6.66
6  CC1(C)C(=O)N(c2ccc(F)c(C(F)(F)F)c2)C(=O)N1Cc1cc(C(F)(F)F)cc(C(F)(F)F)c1 [Example 9]       pKi             6.53
